system: RARa:RXR (NR concentration 270 nM, RXRa partner concentration 90 nM); assay: PBM binding z-score (relative to random genomic background probes); higher = stronger binding; sequences stand for … in GC…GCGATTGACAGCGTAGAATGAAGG
PBM binding z-score class ranges: low range = under 0.7, mid range = from 0.7 up to 2, high range = 2 and over

Consider the following illustrative entries.
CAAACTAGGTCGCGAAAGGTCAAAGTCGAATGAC; high range
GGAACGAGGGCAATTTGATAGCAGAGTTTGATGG; low range
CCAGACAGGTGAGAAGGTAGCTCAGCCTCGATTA; low range

Lookup: Which class does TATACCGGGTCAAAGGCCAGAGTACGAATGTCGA fall in?
Found: high range

Lookup: Lab note: sort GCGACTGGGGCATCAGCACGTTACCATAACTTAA into the matching PBM binding z-score band.
Found: low range

Lookup: Which category does the recorded PBM binding z-score put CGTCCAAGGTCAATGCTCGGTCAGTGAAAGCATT in?
Found: high range

Lookup: Entry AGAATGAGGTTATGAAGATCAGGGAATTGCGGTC belongs to which category?
Found: mid range

Lookup: Which PBM binding z-score band matches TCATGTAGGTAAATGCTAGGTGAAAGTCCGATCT ?
Found: low range

Lookup: Sort into band: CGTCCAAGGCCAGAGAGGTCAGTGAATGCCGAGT
Found: high range

----------
Reported values of PBM binding z-score for individual entries
test system: PPARg homodimer (NR concentration 180 nM); assay: PBM binding z-score (relative to random genomic background probes); higher = stronger binding; sequences stand for … in GC…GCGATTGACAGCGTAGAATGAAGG

Consider the reported PBM binding z-score for these sequences:
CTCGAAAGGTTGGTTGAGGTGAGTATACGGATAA; 0.774
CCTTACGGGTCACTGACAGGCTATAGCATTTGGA; 2.27
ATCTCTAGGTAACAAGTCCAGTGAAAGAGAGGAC; 0.367
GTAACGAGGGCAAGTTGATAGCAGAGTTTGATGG; 0.983
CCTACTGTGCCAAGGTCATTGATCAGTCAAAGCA; 2.81

Now consider the entry below.
Lookup: Find the recorded PBM binding z-score belonging to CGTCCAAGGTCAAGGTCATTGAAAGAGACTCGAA and report it.
Found: 4.46

----------
test system: PPARg DBDmut:RXRa IVT, anti-PPARg (DBD mutation: PPARg1 K132A/R137A, NR concentration 270 nM, RXRa partner concentration 90 nM); test: PBM binding z-score (relative to random genomic background probes); higher = stronger binding; sequences stand for … in GC…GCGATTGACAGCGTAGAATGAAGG
Reported PBM binding z-score values for the following sequences.
Write the value as a bare number.

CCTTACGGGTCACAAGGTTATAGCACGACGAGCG; 0.482
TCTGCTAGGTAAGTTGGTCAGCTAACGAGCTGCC; -0.126
ACTATTAGTTGACTTAGCGCAACCGATACGACGC; 1.97

Lookup: GET /values?readout=PBM binding z-score&item= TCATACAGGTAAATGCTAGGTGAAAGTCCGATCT
Found: 0.656

Lookup: // query PBM binding z-score value for entry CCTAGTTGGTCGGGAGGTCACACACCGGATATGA
Found: 0.253

Lookup: GET /values?readout=PBM binding z-score&item= ACTATTAGTCGAGACGAGGGCAACCGATAGGTTG
Found: 0.32

Origin of the recorded values: the supplement of paper PMC6555819
